target: HCV polymerase (NS5B) type 1a (Hepatitis C virus genotype 1a); construct: made in house; host or cells: Escherichia coli (by the 'similar method' of the 1b enzyme); assay: Assay of enzyme (HCV polymerase) inhibitory activity, type 1a enzyme; format: biochemical, HCV type 1a (cloned from the blood of patients); settings: HCV polymerase inhibitory activity IC50, 1a, type 1a enzyme
pIC50: −log10 of the molar value.
Experimental endpoint: pIC50

In the examples that follow, each entry is paired with its recorded pIC50.
CCCc1ccc(CNC(=O)[C@H]2CN(c3cnc4cncc(C(=O)O)c4n3)CCN2S(=O)(=O)c2ccc(OC(F)(F)F)cc2)cc1 [Example 824]	> 7.00
O=C(NCc1ccc(OC(F)(F)F)cc1)[C@H]1CN(c2nn3c(=O)cc(C(F)(F)F)nc3s2)CCN1S(=O)(=O)c1ccc(OC(F)(F)F)cc1 [Example 1038]	6.00 to 7.00
O=C(NCc1ccc(OC(F)F)c(F)c1)[C@H]1CN(c2nc3nc(C4CC4)ncc3s2)CCN1S(=O)(=O)c1ccc(C(F)(F)F)cc1 [Example 1074]	> 7.00
NC(=O)CCc1cncc2ncc(N3CCN(S(=O)(=O)c4ccc(OC(F)(F)F)cc4)[C@@H](C(=O)NCc4ccc(OC(F)(F)F)cc4)C3)nc12 [Example 810]	> 7.00
CCC(F)(F)c1ccc(CNC(=O)[C@H]2CN(c3cnc4cncnc4n3)CCN2S(=O)(=O)c2ccc(OC)cc2)cc1 [Example 747]	> 7.00
CCC(F)(F)c1ccc(CNC(=O)[C@H]2CN(c3cnc4cccc(Cl)c4n3)CCN2S(=O)(=O)c2ccc(OC(F)(F)F)cc2)cc1 [Example 742]	6.00 to 7.00

Asked: // query pIC50 value for entry CCC(F)(F)c1ccc(CNC(=O)[C@H]2CN(c3cnc4ccc(C(=O)O)cc4n3)CCN2S(=O)(=O)c2ccc(OC(F)(F)F)cc2)cc1 [Example 711]
Given back: 6.00 to 7.00

Asked: Try this compound too: CCC(F)(F)c1ccc(CNC(=O)[C@H]2CN(c3cnc4cnccc4n3)CCN2S(=O)(=O)c2ccc(N3CCCC3)cc2)cc1 [Example 743]
Given back: > 7.00

Asked: Entry O=C(NCc1ccc(OC(F)(F)F)cc1)[C@H]1CN(c2nc3nc(Cl)ncc3s2)CCN1S(=O)(=O)c1ccc(OC(F)(F)C(F)F)cc1 [Example 959] please
Given back: > 7.00

Asked: Further, for O=C(NCc1ccc(OC(F)(F)F)cc1)[C@H]1CN(c2ccc3ncccc3n2)CCN1S(=O)(=O)c1ccc(OC(F)(F)F)cc1 [Example 793] ?
Given back: > 7.00

Asked: O=C(NCc1ccc(OC(F)(F)F)cc1)[C@H]1CN(c2nc3cn[nH]c(=O)c3s2)CCN1S(=O)(=O)c1ccc(Cl)s1 [Example 850] , same question.
Given back: > 7.00

Asked: Now the compound Nc1nc(C2CC2)nc2nc(N3CCN(S(=O)(=O)c4ccc(OC(F)(F)F)cc4)[C@@H](C(=O)NCc4ccc(OC(F)(F)F)cc4)C3)sc12 [Example 1090]
Given back: > 7.00

Values were extracted from patent US8017612B2.
